Test system: hLiMTs
PROCEDURE DETAILS: Combined HCI (HCS) and cellular ATP 3D assay in hLiMTs
EXPERIMENTAL PARAMETERS: hLiMTs; HCS endpoints; cut-off <25x Avg Cmax
MEASUREMENT NAME: hLiMTs <25x Avg Cmax HCS

# MOLECULE, STUDY TARGET, hLiMTs <25x Avg Cmax HCS
data = [
    ("CCOC(=O)c1ncn2c1CN(C)C(=O)c1cc(F)ccc1-2 [flumazenil, reference compound]", "hLiMTs", "-ve"),
    ("Cn1cnc([N+](=O)[O-])c1Sc1ncnc2nc[nH]c12 [azathioprine]", "hLiMTs", "+ve"),
    ("CN(C)CCC(c1ccc(Cl)cc1)c1ccccn1 (stereo not drawn) [chlorpheniramine]", "hLiMTs", "-ve"),
    ("O=C1CN(/N=C/c2ccc(-c3ccc([N+](=O)[O-])cc3)o2)C(O)=N1 [dantrolene]", "hLiMTs", "+ve"),
]

I'd like to know its hLiMTs <25x Avg Cmax HCS. The molecule in question is Cc1ccc(C(=O)c2cc(O)c(O)c([N+](=O)[O-])c2)cc1 [tolcapone, reference compound] +ve

I'd like to know its hLiMTs <25x Avg Cmax HCS. The molecule in question is CCCC(CCC)C(=O)O [valproic acid] +ve

I'd like to know its hLiMTs <25x Avg Cmax HCS. The molecule in question is CCN(CC)CCNC(=O)c1c(C)[nH]c(/C=C2\C(=O)Nc3ccc(F)cc32)c1C [sunitinib] +ve

I'd like to know its hLiMTs <25x Avg Cmax HCS. The molecule in question is CC(=O)Oc1ccccc1C(=O)O [acetylsalicylic acid] +ve

I'd like to know its hLiMTs <25x Avg Cmax HCS. The molecule in question is CC(COc1ccccc1)N(CCCl)Cc1ccccc1 (stereo not drawn) [phenoxybenzamine] -ve

I'd like to know its hLiMTs <25x Avg Cmax HCS. The molecule in question is Clc1ccccc1CN1CCc2sccc2C1 [ticlopidine] +ve

----------
Test system: hLiMTs
PROCEDURE DETAILS: Combined HCI (HCS) and cellular ATP 3D assay in hLiMTs
EXPERIMENTAL PARAMETERS: hLiMTs; all endpoints (ATP and HCS); cut-off <25x Avg Cmax
MEASUREMENT NAME: hLiMTs <25x Avg Cmax All

Illustrative cases are given below, each with its answer.
# MOLECULE, hLiMTs <25x Avg Cmax All
records = [
    ("CN(C)CCCN1c2ccccc2Sc2ccc(Cl)cc21 [chlorpromazine, reference compound]", "+ve"),
    ("Cc1ccc(N(CC2=NCCN2)c2cccc(O)c2)cc1", "-ve"),
    ("CCN(CC)CCNC(=O)c1c(C)[nH]c(/C=C2\\C(=O)Nc3ccc(F)cc32)c1C", "+ve"),
    ("CC(COc1ccccc1)N(CCCl)Cc1ccccc1 (centres unmarked)", "-ve"),
]

Now, please, on to the next molecule.
I'd like to know its hLiMTs <25x Avg Cmax All. The molecule in question is CS(=O)(=O)CCNCc1ccc(-c2ccc3ncnc(Nc4ccc(OCc5cccc(F)c5)c(Cl)c4)c3c2)o1 +ve

----------
Test system: HepaRG spheroids
PROCEDURE DETAILS: Combined HCI (HCS) and cellular ATP 3D assay in HepaRG spheroids
EXPERIMENTAL PARAMETERS: HepaRG; all endpoints (ATP and HCS); cut-off <25x Avg Cmax
MEASUREMENT NAME: HepaRG <25x Avg Cmax All

Illustrative cases are given below, each with its answer.
# COMPOUND STRUCTURE, HepaRG <25x Avg Cmax All
records = [
    ("CCOC(=O)CN[C@@H](C(=O)N1CC[C@H]1C(=O)NCc1ccc(/C(N)=N\\O)cc1)C1CCCCC1", "-ve"),
    ("CN(C)C(=O)Oc1cccc([N+](C)(C)C)c1", "-ve"),
    ("CC/C(=C(\\c1ccccc1)c1ccc(OCCN(C)C)cc1)c1ccccc1", "+ve"),
    ("N[C@@H]1[C@H]2CN(c3nc4c(cc3F)c(=O)c(C(=O)O)cn4-c3ccc(F)cc3F)C[C@@H]12", "+ve"),
]

I'm curious: which HepaRG <25x Avg Cmax All was measured for C#CCN(C)Cc1ccccc1 tested on HepaRG spheroids? -ve
